System: Radical scavenging activity
Test: Antioxidant activity assessed as inhibition of DPPH free radicals at 0.1 mM after 30 mins by UV-visible spectrophotometer analysis relative to control
Format: functional
Kindly return true if reported inhibition is no lower than 40%; return false if it is lower.

// known answers, use as guide
{"molecule": "Cc1c(C)c2c(c(C)c1O)CCC(C)(C(=O)O)O2 (centres undefined)", "class": "true"}
{"molecule": "c1ccc(CNC23OC4C5C6CC(C7C6C4C72)C53)cc1 (centres undefined)", "class": "false"}
{"molecule": "O=C(NC12CC3CC(CC(C3)C1)C2)c1cc2ccccc2oc1=O", "class": "true"}
{"molecule": "O=C(NC12CC3CC(CC(C3)C1)C2)c1n[nH]c2ccccc12", "class": "false"}
{"molecule": "O=[N+]([O-])c1ccc(NC23CC4CC(CC(C4)C2)C3)c([N+](=O)[O-])c1", "class": "false"}

Item `N#Cc1c2ccccc2cn1C12CC3CC(CC(C3)C1)C2` with inhibition of 40% or above?
false

Item `NC12CC3CC(CC(C3)C1)C2` with inhibition of 40% or above?
false

Item `CNc1ccccc1C(=O)NC12CC3CC(CC(C3)C1)C2` with inhibition of 40% or above?
true

Item `CN(C)c1cccc2c(S(=O)(=O)NC34CC5CC(CC(C5)C3)C4)cccc12` with inhibition of 40% or above?
false
